Target: Protein arginine N-methyltransferase 7 (Homo sapiens, UniProt Q9NVM4)
Sequence (Q9NVM4 whole entry): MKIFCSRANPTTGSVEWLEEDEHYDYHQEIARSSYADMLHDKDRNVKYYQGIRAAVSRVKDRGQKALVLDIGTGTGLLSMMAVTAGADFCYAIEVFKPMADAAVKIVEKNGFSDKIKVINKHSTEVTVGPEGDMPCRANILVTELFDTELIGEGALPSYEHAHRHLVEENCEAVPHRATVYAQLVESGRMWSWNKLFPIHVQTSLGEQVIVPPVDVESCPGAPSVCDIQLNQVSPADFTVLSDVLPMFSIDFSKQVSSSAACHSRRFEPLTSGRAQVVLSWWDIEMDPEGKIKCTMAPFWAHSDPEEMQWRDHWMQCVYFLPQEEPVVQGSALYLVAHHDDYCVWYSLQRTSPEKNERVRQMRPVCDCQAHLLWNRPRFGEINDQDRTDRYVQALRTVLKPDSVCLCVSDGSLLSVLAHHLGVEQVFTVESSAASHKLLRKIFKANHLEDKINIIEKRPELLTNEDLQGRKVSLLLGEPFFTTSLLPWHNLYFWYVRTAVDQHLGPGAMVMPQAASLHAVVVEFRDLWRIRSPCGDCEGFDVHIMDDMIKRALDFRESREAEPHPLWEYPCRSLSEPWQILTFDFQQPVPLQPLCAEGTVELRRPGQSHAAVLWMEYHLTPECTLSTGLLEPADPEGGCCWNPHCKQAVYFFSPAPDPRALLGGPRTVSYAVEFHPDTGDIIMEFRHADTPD
Assay: Binding affinity to N-terminal GST-tagged recombinant full length human PRMT7 extracted from baculovirus infected Sf9 cells assessed as dissociation constant by SPR analysis
testReadout: Kd (µM)
Please give a number only; it is taken to be in µM.

Q: For Protein arginine N-methyltransferase 7 (Homo sapiens, UniProt Q9NVM4), provide Kd of "COc1cc(-c2ncc(F)c(Nc3ccc4nc(C)cc(N)c4c3)n2)cc(OC)c1OC" please.
Result: 7.12

====

Biological target: Protein arginine N-methyltransferase 7 (Homo sapiens, UniProt Q9NVM4)
Test: Inhibition of N-terminal FLAG-tagged recombinant human PRMT7 extracted from baculovirus infected Sf9 cells using Histone H4 (1 to 21) peptide as substrate preincubated for 15 mins followed by [3H]-SAM and substrate addition and measured after 180 mins by microplate counter analysis
testReadout: IC50 (µM)
Please give a number only; it is taken to be in µM.

Q: Return reported IC50; argument: "COc1cc(-c2ncc(F)c(Nc3ccc4nc(C)cc(N)c4c3)n2)cc(OC)c1OC"
Result: 9.91

Q: Try this molecule next: "COc1cc(-c2ccc3ncc(Nc4ccc(N(C)C)cc4)nc3c2)cc(OC)c1OC"
Result: 26
